# studyTarget: α7-nAChRs (Homo sapiens)
# Construct: expressed in transfected cells; host or cells: HEKtsA201 cells co-expressing TN-XXL
# Sequence (P36544 23-502): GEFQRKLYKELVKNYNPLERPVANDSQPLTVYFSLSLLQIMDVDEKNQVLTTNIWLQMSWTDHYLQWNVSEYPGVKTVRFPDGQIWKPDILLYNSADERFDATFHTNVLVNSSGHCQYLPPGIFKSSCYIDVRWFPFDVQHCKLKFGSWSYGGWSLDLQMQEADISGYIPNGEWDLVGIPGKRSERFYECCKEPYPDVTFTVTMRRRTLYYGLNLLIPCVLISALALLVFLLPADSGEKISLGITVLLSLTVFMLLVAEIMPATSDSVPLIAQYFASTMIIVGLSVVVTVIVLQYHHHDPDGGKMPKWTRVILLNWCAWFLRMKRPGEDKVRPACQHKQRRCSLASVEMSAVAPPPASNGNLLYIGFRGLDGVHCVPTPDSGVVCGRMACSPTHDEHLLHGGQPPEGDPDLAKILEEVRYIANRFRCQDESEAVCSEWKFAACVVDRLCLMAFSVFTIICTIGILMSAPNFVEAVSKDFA
# experiment: FRET functional assay (agonist/antagonist) using LGIC-CNiFERs
# Assay type: cell-based
# studyConditions: in presence of 10 μM PNU-120596; * partial agonist; >10 = did not pass initial screen; read-out: Agonist EC50 ± SD, α7
Lab note: anything with EC50 below 1000 nM is marked fulfilled; values at 1000 nM or higher are marked not fulfilled.

Is it true that EC50 reported for O=Cc1c[nH]c2ccc(-c3cn(CCN4CCCCC4)nn3)cc12 [PPRD5] is less than 1000 nM?
not fulfilled

Item c1cc2cc(-c3cn(C4CCCNC4)nn3)ccc2[nH]1 (stereo not shown) [IND10] : EC50 beneath 1000 nM, strictly?
fulfilled

Hello, I'm reviewing records and need to know if EC50 of COC(=O)c1cc(-c2cn(C3CN4CCC3CC4)nn2)ccc1N (stereo not shown) [QND15] is below 1000 nM. Could you check?
not fulfilled

Lab note: EC50 threshold 1000 nM. Does this molecule come in strictly under it? c1cc2cc(-c3cn(CCN4CCCCCC4)nn3)ccc2[nH]1 [IND14]
fulfilled

I wonder whether c1cc2cc(-c3cn(CCCCN4CCCCC4)nn3)ccc2[nH]1 [IND3] has EC50 below 1000 nM. Can you tell?
fulfilled
